B1: glmS ribozyme (parent)
chain: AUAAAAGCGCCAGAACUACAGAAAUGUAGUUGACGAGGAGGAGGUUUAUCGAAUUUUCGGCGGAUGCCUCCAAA

- Variants of: B1
- assayMethodText: self-cleavage kobs at 2500 uM GlcN6P; higher = faster cleavage; RNA array
- settings: with glucosamine-6-phosphate
Variants at the floor of the assay were thinned out.
propertyLabel: self-cleavage kobs at 2500 uM GlcN6P

[
  {
    "variantName": "C34U U56C",
    "result": "< 1e-05 s⁻¹"
  },
  {
    "variantName": "A6G C16G U54C C61A",
    "result": "< 1e-05 s⁻¹"
  },
  {
    "variantName": "G60C A64U",
    "result": "< 1e-05 s⁻¹"
  },
  {
    "variantName": "G35U U45G C61A",
    "result": "< 1e-05 s⁻¹"
  },
  {
    "variantName": "A6G G9U G13C C34A",
    "result": "< 1e-05 s⁻¹"
  },
  {
    "variantName": "G13C G32U G38U U47G A48U",
    "result": "< 1e-05 s⁻¹"
  },
  {
    "variantName": "A6G G59U C61U",
    "result": "< 1e-05 s⁻¹"
  },
  {
    "variantName": "G37C G41U A48C",
    "result": "< 1e-05 s⁻¹"
  },
  {
    "variantName": "C8U G32A U45A U56C",
    "result": "< 1e-05 s⁻¹"
  },
  {
    "variantName": "A53C U54C",
    "result": "0.0011 s⁻¹"
  },
  {
    "variantName": "A12C C70U",
    "result": "0.0217 s⁻¹"
  },
  {
    "variantName": "G37A G40A",
    "result": "0.000366 s⁻¹"
  },
  {
    "variantName": "C8A C34G",
    "result": "< 1e-05 s⁻¹"
  },
  {
    "variantName": "A12U U47G U57C",
    "result": "0.000172 s⁻¹"
  },
  {
    "variantName": "A14C C34A U46G",
    "result": "< 1e-05 s⁻¹"
  },
  {
    "variantName": "U30G A33U G60A",
    "result": "< 1e-05 s⁻¹"
  }
]

Source of measurements: the supplement of paper PMC7125110
